# Tested on: A2780 ovarian cancer cells
# measurement.protocol: Cellular proliferation in A2780 cells, Cell Titer Glo (Biological Method 4)
# Type: cell-based
# recorded.conditions: Homo sapiens; ovarian cancer cell line A2780
Measured EC50, listed per entry.

Examples with answers:
molecule="Nc1ccc(-c2cc(Nc3cnc4ccccc4c3)nc(N3CCOCC3)n2)cn1 [Compound 183]" test_readout=EC50 experimental_result="< 1 µM"
molecule="Nc1ccc(-c2cc(N3CCOCC3)nc(N3CCOCC3)n2)c(=O)[nH]1 [Compound 551]" test_readout=EC50 experimental_result="< 10 µM"
molecule="Nc1ncc(-c2cc(O[C@@H]3CCCN(C(=O)OC4CCCC4)C3)nc(N3CCOCC3)n2)c(N)n1 [Compound 526]" test_readout=EC50 experimental_result="< 10 µM"
molecule="CCN(CC)CCc1csc(Nc2cc(-c3cnc(N)cc3C(F)(F)F)nc(N3CCOCC3)n2)n1 [Compound 13]" test_readout=EC50 experimental_result="< 1 µM"
molecule="CN(C)c1nc2ccccc2cc1-c1cc(-c2ccc(N)nc2)nc(N2CCOCC2)n1 [Compound 500]" test_readout=EC50 experimental_result="< 10 µM"

Exam item: Find the measured EC50: item Nc1cc(C(F)(F)F)c(-c2cc(O[C@H]3CCN(C(=O)c4ccccc4)C3)nc(N3CCOCC3)n2)cn1 [Compound 532] , target or system A2780 ovarian cancer cells.
Marked response: < 10 µM

Exam item: Find the measured EC50: item CC(C)OC(=O)N1CCC[C@H](Oc2cc(-c3cnc(N)nc3N)nc(N3CCOCC3)n2)C1 [Compound 167] , target or system A2780 ovarian cancer cells.
Marked response: < 10 µM

Exam item: Find the measured EC50: item CN(c1cc(-c2cnc(N)nc2)nc(N2CCOCC2)n1)C1CCCCC1 [Compound 404] , target or system A2780 ovarian cancer cells.
Marked response: < 10 µM

Exam item: Find the measured EC50: item COc1cncc(-c2nc(N3CCOCC3)nc(-c3cnc(N)nc3)c2C)c1 [Compound 475] , target or system A2780 ovarian cancer cells.
Marked response: < 10 µM

Exam item: Find the measured EC50: item Nc1ncc(-c2cc(Nc3ccc4c(c3)OCCO4)nc(N3CCOCC3)n2)c(C(F)(F)F)n1 [Compound 164] , target or system A2780 ovarian cancer cells.
Marked response: < 1 µM

Exam item: Find the measured EC50: item Nc1ncc(-c2cc(N3CCCc4ccccc43)nc(N3CCOCC3)n2)cn1 [Compound 411] , target or system A2780 ovarian cancer cells.
Marked response: < 10 µM

Exam item: Find the measured EC50: item CC(C)C(=O)N1CCC(Oc2cc(-c3cnc(N)cc3C(F)(F)F)nc(N3CCOCC3)n2)CC1 [Compound 458] , target or system A2780 ovarian cancer cells.
Marked response: < 10 µM

Exam item: Find the measured EC50: item CS(=O)(=O)N1CC[C@H](Oc2cc(-c3cnc(N)cc3C(F)(F)F)nc(N3CCOCC3)n2)C1 [Compound 524] , target or system A2780 ovarian cancer cells.
Marked response: < 10 µM

Exam item: Find the measured EC50: item CC(=O)N1CCC(Oc2cc(-c3cnc(N)cc3C(F)(F)F)nc(N3CCOCC3)n2)CC1 [Compound 19] , target or system A2780 ovarian cancer cells.
Marked response: < 1 µM

Exam item: Find the measured EC50: item COC(=O)N1CCC[C@@H](Oc2cc(-c3cnc(N)cc3C(F)(F)F)nc(N3CCOCC3)n2)C1 [Compound 452] , target or system A2780 ovarian cancer cells.
Marked response: < 10 µM

Exam item: Find the measured EC50: item COC(=O)N1CCC[C@H](Oc2cc(-c3cnc(N)nc3N)nc(N3CCOCC3)n2)C1 [Compound 75] , target or system A2780 ovarian cancer cells.
Marked response: < 10 µM

Exam item: Find the measured EC50: item COC(=O)N1CC[C@@H](Oc2cc(-c3cnc(N)cc3C(F)(F)F)nc(N3CCOCC3)n2)C1 [Compound 539] , target or system A2780 ovarian cancer cells.
Marked response: < 10 µM

Exam item: Find the measured EC50: item CC(C)OC(=O)N1CC[C@H](Oc2cc(-c3cnc(N)cc3C(F)(F)F)nc(N3CCOCC3)n2)C1 [Compound 534] , target or system A2780 ovarian cancer cells.
Marked response: < 10 µM

Exam item: Find the measured EC50: item Cc1c(-c2cnc(N)nc2)nc(N2CCOCC2)nc1-c1cccc(S(C)(=O)=O)c1 [Compound 548] , target or system A2780 ovarian cancer cells.
Marked response: < 10 µM

Exam item: Find the measured EC50: item CS(=O)(=O)Nc1ncccc1-c1cc(-c2cnc(N)cc2C#N)nc(N2CCOCC2)n1 [Compound 136] , target or system A2780 ovarian cancer cells.
Marked response: < 1 µM

Exam item: Find the measured EC50: item COc1ccc(Nc2cc(-c3cnc(N)nc3)nc(N3CCOCC3)n2)cn1 [Compound 91] , target or system A2780 ovarian cancer cells.
Marked response: < 1 µM

Exam item: Find the measured EC50: item Nc1ncc(-c2ccnc(N3CCOCC3)n2)c(=O)[nH]1 [Compound 462] , target or system A2780 ovarian cancer cells.
Marked response: < 10 µM

Exam item: Find the measured EC50: item Nc1ccc(-c2cc(Nc3ccccc3S(N)(=O)=O)nc(N3CCOCC3)n2)cn1 [Compound 187] , target or system A2780 ovarian cancer cells.
Marked response: < 10 µM

Exam item: Find the measured EC50: item COc1ccnc(Nc2cc(-c3ccc(N)nc3)nc(N3CCOCC3)n2)c1 [Compound 148] , target or system A2780 ovarian cancer cells.
Marked response: < 25 µM

Exam item: Find the measured EC50: item Nc1ccc(-c2cc(Nc3ccncc3F)nc(N3CCOCC3)n2)cn1 [Compound 196] , target or system A2780 ovarian cancer cells.
Marked response: < 1 µM

These data points were gathered from patent US8217035B2.
